The values you see were collected from patent US20240294644A1.

Biological target: T1, cynomolgus monkey VTCN1 protein (cynomolgus monkey, UniProt A0A2K5U6P5 25-259)
T1 construct: The construct and its tag are not described; also called cyno VTCN1
T1 sequence: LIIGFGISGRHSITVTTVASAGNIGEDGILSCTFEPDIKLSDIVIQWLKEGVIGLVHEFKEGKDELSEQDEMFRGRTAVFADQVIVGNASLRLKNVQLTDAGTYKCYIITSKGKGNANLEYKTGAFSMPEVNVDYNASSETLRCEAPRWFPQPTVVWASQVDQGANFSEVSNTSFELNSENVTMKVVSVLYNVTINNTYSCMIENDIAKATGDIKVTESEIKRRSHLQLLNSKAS
Test: BLI (OCTET Red), antibody on Protein A biosensor, cyno VTCN1
Reported pKd values follow for various binders
Please express pKd as -log10 of the molar concentration.

binder: 5A12 (antibody, V domains shown, Recombinant mouse antibody made in CHO cells) VH: QVQLQQSGPGLVQPSQSLSITCTVSGFSLTSYGVQWVRQSPGKGLEWLGVIWSSGSTDYNAAFISRLSINKDNSKSQVFFKMNSLQPDDTAIYYCARDITTIVEGFAYWGQGTLVTVSA VL: IIVMTQSPKSMSMSVGERVTLSCKASENVGTYVSWYQQKPEQSPKLLIYGASNRYTGVPDRFTGSGSATDFTLTISSVQAEDLADYHCGQSYSYPFTFGSGTKLEIK
endpoint: pKd
numeric.readout: 7.92

--- query ---
Entry 3G10 (antibody, V domains shown, Recombinant mouse antibody made in CHO cells) VH: QIQLKESGPGLVQPSQSLSITCTVSGFSLTSYGVHWVRQSPGKGLEWLGVIWSGGYTDYNSAFISRLSISKDNSKSQVFFKMNSLQADDTAIYYCARDITTIVEGFAYWGQGTLVTVSA VL: IIVMTQSPKSMSMSVGERITLNCKASENVGTYVSWYQQKPEQSPKLLIYGASNRYTGVPDHFTGSGSATDFTLTISSVQAEDLADYHCGQTYSYPFTFGSGTKLEIK has what pKd? 7.85
